# METHOD_NOTES: yeast display, Sf9 membrane polyspecificity reagent, FACS + sequencing; frameworks hold sequencing errors
MEASURED_METRIC: polyreactivity (PSR sort gate)

QVQLVESGGGLVQAGGSLRLSCAASGFIFWWYAMGWYRQAPGKERELVATITASVGSTNYADSVKGRFTISRDTAKNTVYLQMNSLKPEDTAVYYCATDIIGAIRDWDHTRMDYWGQGTQVTVSS | low polyreactivity
QVQLVESGGGLVQAGGSLRLSCAASGFTFFLYTMGWYRQAPGKERELVATITSAGTTNYADSVKGRFTISRDNAKNTVYLQMHSLKPEDTAVDYCNADRWEYDYWGQGTQVTVSS | low polyreactivity
